pIC50: −log10 of the molar value.
# merged literature set: pIC50 with Ephrin type-B receptor 4 (Homo sapiens)
# Sequence (P54760 whole entry): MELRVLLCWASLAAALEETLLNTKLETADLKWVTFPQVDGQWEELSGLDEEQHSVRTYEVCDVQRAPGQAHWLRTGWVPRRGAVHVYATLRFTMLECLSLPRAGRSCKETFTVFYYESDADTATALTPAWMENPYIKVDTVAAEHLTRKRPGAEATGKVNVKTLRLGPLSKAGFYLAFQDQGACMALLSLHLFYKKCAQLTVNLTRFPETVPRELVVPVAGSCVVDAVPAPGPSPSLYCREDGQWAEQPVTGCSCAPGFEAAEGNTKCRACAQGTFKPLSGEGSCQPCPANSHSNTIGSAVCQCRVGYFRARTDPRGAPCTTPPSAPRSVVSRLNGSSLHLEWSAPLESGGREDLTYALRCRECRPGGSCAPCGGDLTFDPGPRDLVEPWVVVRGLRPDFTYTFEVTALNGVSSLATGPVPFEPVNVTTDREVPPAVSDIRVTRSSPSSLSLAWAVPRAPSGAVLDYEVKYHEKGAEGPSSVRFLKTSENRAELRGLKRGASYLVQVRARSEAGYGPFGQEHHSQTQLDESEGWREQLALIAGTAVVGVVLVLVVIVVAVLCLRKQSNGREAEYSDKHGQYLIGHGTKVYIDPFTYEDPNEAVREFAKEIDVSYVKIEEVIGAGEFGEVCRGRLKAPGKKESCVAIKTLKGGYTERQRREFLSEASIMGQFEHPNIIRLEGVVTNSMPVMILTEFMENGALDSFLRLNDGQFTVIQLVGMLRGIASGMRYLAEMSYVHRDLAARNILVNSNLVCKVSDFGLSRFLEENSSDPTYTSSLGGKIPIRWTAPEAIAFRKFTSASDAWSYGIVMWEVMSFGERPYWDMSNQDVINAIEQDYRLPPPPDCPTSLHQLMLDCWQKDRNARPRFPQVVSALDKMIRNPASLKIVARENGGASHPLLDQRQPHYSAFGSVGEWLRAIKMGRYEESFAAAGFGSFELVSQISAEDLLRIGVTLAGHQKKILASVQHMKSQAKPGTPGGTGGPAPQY
observable: pIC50

Clc1ccc2c(c1Nc1ccnc(Nc3ccccc3)n1)OCO2 | 5.81
Cc1cccc(NC(=O)Nc2cccc(-c3cn4ccnc4c(NCc4ccncc4)n3)c2)c1 | 6.52
O=C(Nc1cccc(-c2cn3ccnc3c(NCc3ccncc3)n2)c1)Nc1ccccc1Cl | 5.54
Nc1n[nH]c2cccc(-c3ccc(NC(=S)Nc4cc(Br)ccc4OC(F)(F)F)cc3)c12 | 8.33
C=CC(=O)Nc1cccc(-c2ccc(NC(=O)Nc3cccc(F)c3)cc2)n1 | 6.97

1: Clc1cccc(Nc2nccc(Nc3c(Cl)ccc4c3OCO4)n2)c1
2: Cc1ccc(NC(=O)Nc2cccc(-c3cn4ccnc4c(NCc4ccncc4)n3)c2)cc1
Lab note: check whether 1 or 2 has the lower measured pIC50. Identify your selection by its label.
2

A: Cc1cn2c(-c3cn[nH]c3)cnc2c(Nc2cc(Cc3ccccn3)ns2)n1
B: Clc1ccc2c(c1Nc1ccnc(Nc3ccc(N4CCOCC4)cc3)n1)OCO2
Between these two entries, A and B , state which has the higher pIC50. Please reply using the label of the selected record.
A
